target: CDK7/cyclinH/MAT1 trimeric complex (Homo sapiens); experiment: In vitro CDK7 assay, potency of irreversible covalent inhibitors (kinact/KI), coupled PK/LDH ADP readout at 340 nm; settings: read-out: CDK7 (20 nM enz.) (kobs/[I], M^−1*s^−1), 20 nM enzyme
Sequence (P50613 whole entry): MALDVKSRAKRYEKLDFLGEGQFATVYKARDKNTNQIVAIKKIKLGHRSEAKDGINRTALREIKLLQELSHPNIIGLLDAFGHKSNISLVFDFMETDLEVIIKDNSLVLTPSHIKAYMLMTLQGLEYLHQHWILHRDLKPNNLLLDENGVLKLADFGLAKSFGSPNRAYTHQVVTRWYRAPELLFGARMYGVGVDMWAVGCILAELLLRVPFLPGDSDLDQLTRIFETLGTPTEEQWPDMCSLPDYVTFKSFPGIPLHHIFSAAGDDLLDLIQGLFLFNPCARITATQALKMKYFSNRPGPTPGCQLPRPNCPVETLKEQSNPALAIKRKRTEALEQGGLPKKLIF
Sequence (P51946 whole entry partner): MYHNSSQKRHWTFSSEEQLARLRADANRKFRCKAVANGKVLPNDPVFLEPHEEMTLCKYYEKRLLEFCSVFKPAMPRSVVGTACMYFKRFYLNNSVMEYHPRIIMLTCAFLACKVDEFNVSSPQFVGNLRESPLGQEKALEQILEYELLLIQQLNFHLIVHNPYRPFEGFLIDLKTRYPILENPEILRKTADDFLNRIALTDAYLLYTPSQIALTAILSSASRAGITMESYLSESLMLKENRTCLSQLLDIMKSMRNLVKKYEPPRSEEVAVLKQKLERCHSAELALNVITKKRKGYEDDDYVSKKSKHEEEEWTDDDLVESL
Sequence (P51948 whole entry partner): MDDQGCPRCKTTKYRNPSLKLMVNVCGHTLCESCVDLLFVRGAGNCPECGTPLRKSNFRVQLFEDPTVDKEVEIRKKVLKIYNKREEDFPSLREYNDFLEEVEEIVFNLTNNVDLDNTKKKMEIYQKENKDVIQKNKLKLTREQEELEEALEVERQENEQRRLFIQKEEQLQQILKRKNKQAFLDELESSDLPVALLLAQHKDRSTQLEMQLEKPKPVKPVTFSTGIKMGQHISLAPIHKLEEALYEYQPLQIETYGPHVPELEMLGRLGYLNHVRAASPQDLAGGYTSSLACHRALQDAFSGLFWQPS
measurement_type: kinact/KI (M⁻¹ s⁻¹)

>  <compound>
C=CC(=O)N1CC(N2CCC(c3cc4c(c(C#N)n3)OCc3c(N5CCOCC5)ccnc3N4)CC2)C1

>  <kinact/KI (M⁻¹ s⁻¹)>
1170

$$$$
>  <compound>
C#Cc1cc(C(=O)Nc2ccc3c(c2)Nc2nccc(C4CCOCC4)c2CO3)ccc1NC(=O)C=C

>  <kinact/KI (M⁻¹ s⁻¹)>
1070

$$$$
>  <compound>
C=CC(=O)N1CCC(N2CC(c3cc(Cl)c4c(c3)Nc3nccc(-c5cnn(C)c5)c3CO4)C2)CC1

>  <kinact/KI (M⁻¹ s⁻¹)>
608

$$$$
>  <compound>
C=CC(=O)N1CC(N2CCC(c3cc(Br)c4c(c3)Nc3nccc(C5CCOCC5)c3CO4)CC2)C1

>  <kinact/KI (M⁻¹ s⁻¹)>
1570

$$$$

1 = C=CC(=O)N1CC[C@H](N2CCC(c3cc(C)c4c(c3)Nc3nccc(-c5cnn(C)c5)c3CO4)CC2)C1 (single isomer, unassigned)
2 = C=CC(=O)N1CC[C@H](N2CC(c3cc4c(c(C#N)n3)O[C@H](C)c3c(N5CCOCC5)ccnc3N4)C2)C1 (single isomer, unassigned)
3 = C=CC(=O)N1CC(N2CC(c3cc(C#N)c4c(c3)Nc3nccc(C5CCOCC5)c3[C@H](C)O4)C2)C1 (single isomer, unassigned)
Q: Returns the items ordered by kinact/KI, from maximum to minimum. Quick reminder: the answer is the labels in the order asked.
A: 1, 2, 3
(1: 1330 M⁻¹ s⁻¹, 2: 389 M⁻¹ s⁻¹, 3: 26.5 M⁻¹ s⁻¹)

Just for reference, patent US20240254138A1 is where these values come from.
